Measured growth, listed per entry.
Tested on: LOX IMVI melanoma
Experiment: NCI-60 one-dose screen, 48 h (100 = growth as untreated, 0 = no growth, -100 = all killed)
Conditions: 10 µM unless noted
This is part of a sample that, as a whole, favours compounds with a hit. Of some 83,000 tested, about 20% had one in any assay.
QUANTITY: growth (%)

>>> assay_result("COc1cc(OC)c(S(N)(=O)=O)cc1C(C)=O")
105
>>> assay_result("COc1ccc(/C(N)=N/C(N)=N/c2nc3ccccc3s2)cc1")
22.8
>>> assay_result("CCCCNNC(=O)c1ccc(-c2cccc(F)c2F)cc1")
21.8
>>> assay_result("CCCn1cnc2c(c1=N)C(c1ccc(F)cc1)c1sc3c(C)cccc3c1O2 (stereo not given)")
28.8
>>> assay_result("N#Cc1cccc(NC(=O)c2cc(-c3ccc(F)cc3F)ccc2O)c1")
1.22
>>> assay_result("CCOc1ccc(C(=O)Nc2ncc(Cc3ccc(F)cc3)s2)cc1")
23.7
>>> assay_result("COc1cc2nc(Cl)nc(Nc3cccc(C4=Nc5c(N)nc(N)nc5NC(c5ccccc5)C4)c3)c2cc1OC (stereo not given)")
68
>>> assay_result("CC(=O)O[C@@H]1C(=O)N(c2cnccn2)[C@H]1c1ccccc1[N+](=O)[O-]")
6.26
>>> assay_result("C[C@H]1c2[nH]c3ccccc3c2C[C@H]2C(=O)N(CCCCCCC(=O)NO)CC(=O)N21")
-8.74
>>> assay_result("COc1ccc([C@@H]2c3[nH]c4ccccc4c3C[C@H]3C(=O)N(C4CCN(CC5CCCCC5)CC4)CC(=O)N23)c(OC)c1")
54.3
>>> assay_result("C=C1CC[C@@H]2[C@]3(C)COC(c4ccccc4)O[C@@H]3CC[C@@]2(C)[C@@H]1C/C=C1/C(=O)OC[C@H]1O (stereo not given in full)")
33.8
>>> assay_result("CC/C(=C/c1cc(OC)ccc1O)c1ccc2cc(OC)ccc2[o+]1")
60
>>> assay_result("COc1cc(Cn2cc3c(c2)-c2onc(CN4CCOCC4)c2CC3)cc(OC)c1OC")
100
>>> assay_result("COc1ccc2c(c1)c(-c1cc(N)n3nc(-c4cn(C)c5ccc(OC)cc45)cc3n1)cn2C")
105
>>> assay_result("Oc1[nH]c2ccccc2c1Nn1c(N=N/C=c2/ccc3c(c2)C=NN=3)n[nH]c1=S")
97.6
>>> assay_result("Oc1cccc2ccc(-c3nnc(SCc4ccc(O)c5ncccc45)o3)nc12")
8.81
>>> assay_result("COc1ccc(NCc2cn(-c3ccc(C(=O)O)cc3)nc2-c2cc(C(F)(F)F)cc(C(F)(F)F)c2)cc1")
99.5
>>> assay_result("Cn1ccnc1C(=O)/C=C/c1ccc(CNC(=O)c2ccc(S(F)(F)(F)(F)F)cc2)cc1")
-80.3
>>> assay_result("C=C=COc1cccc(/C(N)=N/C(N)=N/c2nc3ccccc3s2)c1")
37.7
>>> assay_result("COc1ccc(NC2=C(Cl)C(=O)c3nc(C)ccc3C2=O)cc1OC")
-3.09

###

System: KM12 colon
Assay: NCI-60 one-dose screen, 48 h
Settings: 10 µM unless noted
This is part of a sample that, as a whole, favours compounds with a hit. Of some 83,000 tested, about 20% had one in any assay. Active and inactive are the calls of the source. Rule for the calls: active = growth percent below 10; inactive = the rest.
Outcomes: active, inactive

>>> class("CCOP(=O)(OCC)OC[C@]12CCC(C)(C)C=C1[C@H]1CC[C@@H]3[C@@]4(C)CC[C@H](OP(=O)(OCC)OCC)C(C)(C)[C@@H]4CC[C@@]3(C)[C@]1(C)CC2")
"active"
>>> class("O=C(NNc1nc2cc(F)ccc2n2c(CN3CCCC3)ccc12)c1cnccn1")
"inactive"
>>> class("O=C(CSc1nnc(-c2ccc3nc(-c4ccccc4)[nH]c3c2)o1)Nc1ccc(C(=O)/C=C/c2ccccc2)cc1")
"inactive"
>>> class("CCOC(=O)c1c(Nc2ccccc2)nn2c(-c3ccc(Cl)cc3)ccnc12")
"inactive"
>>> class("CC(=O)O[C@@H]1C(=O)N(c2cnccn2)[C@H]1c1ccccc1[N+](=O)[O-]")
"active"
>>> class("c1cn2c(ccc3nc(-c4cn[nH]c4)c4c(c32)CCCC4)n1")
"inactive"
>>> class("Cc1ccc(NC(=S)NNC(=S)Nc2ccc(C)cc2)cc1")
"inactive"
>>> class("O=C1CCC(N2C(=O)c3ccc(NS(=O)(=O)c4ccccc4OC(F)(F)F)cc3C2=O)C(=O)N1 (stereo not drawn)")
"inactive"
>>> class("COCCNc1ccc2ncc(C#Cc3cncc(C(=O)Nc4ccc(CN5CCN(C)CC5)c(C(F)(F)F)c4)c3)n2n1")
"active"
>>> class("COc1ccccc1-n1cc(C#N)c(N)c1C(=O)c1ccc(Cl)cc1")
"inactive"
>>> class("Cc1ccc(NC(=O)c2ccc(CN3CCOCC3)c(C(F)(F)F)c2)cc1Oc1ccc(-c2[nH]nc3ncnc(N)c23)cc1")
"inactive"
>>> class("COc1ccc(-c2cc(-c3ccc(Cl)cc3)c(C#N)c(=O)n2Cc2ccc(C(=O)O)cc2)cc1")
"inactive"
>>> class("Clc1nc2ccccc2nc1-c1nnc(C2CCCCC2)o1")
"inactive"
>>> class("COc1ccc(CCOc2cc3c(cc2OC)CCN(C(=O)NCc2cocn2)C3c2ccc(C)cc2C)cc1 (stereo not drawn)")
"inactive"
>>> class("CS(=O)(=O)c1ccc(-c2nn(-c3ccccc3)cc2/C=N/NC(=O)c2nc(N)n[nH]2)cc1")
"inactive"
>>> class("ClC(Cl)c1nc(-c2ccco2)n2nc(-c3ccccc3)cc2n1")
"active"
>>> class("NC(=O)c1cccc(-n2ccc3cc(NC(=O)Nc4ccc(N5CCOCC5)c(C(F)(F)F)c4)ccc32)n1")
"active"
>>> class("CCCCCc1ccc(S(=O)(=O)Nc2cccc(-c3csc(NC(=O)CCCCCN4CCN(CCO)CC4)n3)c2)cc1")
"inactive"
